Every entry's value here was drawn from patent US20260167728A1.

- test system: T1, huCD3e-mFc (human, UniProt P07766 23-126)
- T1 construct: not shown: mFc, not described
- T1 sequence (P07766 23-126): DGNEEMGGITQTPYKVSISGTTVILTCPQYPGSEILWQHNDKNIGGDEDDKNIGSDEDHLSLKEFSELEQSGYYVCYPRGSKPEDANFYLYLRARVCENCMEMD
- run description: Pool 3 screen, R2
value type: pKd
Numbers only, as −log10 of the molar value.

See these solved cases before continuing.
>  <binder>
AC3822 (CD3.318) (scFv, V domains shown, Pool 3 format (remarks)) VH: EVQLVESGGGIVQPGGSLRLSCAASGFTFSTYAMNWVRQAPGKGLEWVGRIRTKRNDYATYYADSVKGRFTISRDDSKNTLYLQMNSLKTEDTAVYYCVRHENFGNSYVSWFAHWGQGTLVTVSS VL: ELVVTQEPSLTVSPGGTVTLTCRSSNGAVTSSNYANWVQQKPGQAPRGLIGGTNKRAPGTPARFSGSLLEGKAALTLSGVQPEDEAVYYCALWYPNLWVFGGGTKLTVL

>  <pKd>
8.24

$$$$
>  <binder>
AC3800 (CD3.296) (scFv, V domains shown, Pool 3 format (remarks)) VH: EVQLVESGGGIVQPGGSLRLSCAASGFTFSTYAMNWVRQAPGKGLEWVGRIRTKRNNYATYYADSVKGRFTISRDDSKNTVYLQMNSLKTEDTAVYYCVRHENFGNSYVSWFAHWGQGTLVTVSS VL: ELVVTQEPSLTVSPGGTVTLTCRSSNGAVTSSNYANWVQQKPGQAPRGLIGGTNKRAPGTPARFSGSLEGGKAALTLSGVQPEDEAVYYCALWYPNLWVFGGGTKLTVL

>  <pKd>
7.77

$$$$

--- query ---
Input: What value of pKd has been recorded for this entry: AC3798 (CD3.294) (scFv, V domains shown, Pool 3 format (remarks)) VH: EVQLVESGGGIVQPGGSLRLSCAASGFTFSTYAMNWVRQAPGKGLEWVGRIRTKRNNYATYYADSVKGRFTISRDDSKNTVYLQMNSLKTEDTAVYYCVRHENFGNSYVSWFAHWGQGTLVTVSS VL: ELVVTQEPSLTVSPGGTVTLTCRSSNGAVTSSNYANWVQQKPGQAPRGLIGGTNKRAPGTPARFSGSGLGGKAALTLSGVQPEDEAVYYCALWYPNLWVFGGGTKLTVL
Output: 8.24
